Target: T1, mouse IL-18BP (amino acids 31-194) (mouse, UniProt Q9Z0M9 29-193, biotinylated on the AviTag (BirA ligase))
T1 construct: Secreted decoy receptor; made in Expi293 cells (H7 signal peptide); the stated range is the same as for the human protein; also called mIL-18BP
T1 sequence: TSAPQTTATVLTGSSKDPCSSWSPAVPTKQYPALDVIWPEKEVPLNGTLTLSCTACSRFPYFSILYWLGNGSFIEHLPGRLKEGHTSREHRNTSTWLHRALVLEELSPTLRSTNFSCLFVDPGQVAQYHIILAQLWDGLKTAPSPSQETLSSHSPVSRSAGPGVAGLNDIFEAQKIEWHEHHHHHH
Assay: SPR; KD IL-18BP / KD IL-18Rα; SPR; ratio of two KDs
attribute measured: KD ratio: IL-18BP/IL-18Rα
Could you keep your reply to the number by itself?

**Q:** Please report KD ratio: IL-18BP/IL-18Rα for the following binder: mC1 (ligand, recombinant with C-terminal hexahistidine tag in SPR) NFGRLHCTTAVIRNINDQVLFVDKRQPVFEDMTDIDQSASEPQTRLIIYAYVDRRLRGKAVTLSVKDSKMSTLSCKNKIISFEEMDPPENIDDIQSDLIFFQKKVPGHNKMEFESSLYEGHFLACQKEDDAFKLILKKKDENGDKSVMFTLTNLHQS
**A:** 26300

**Q:** Please report KD ratio: IL-18BP/IL-18Rα for the following binder: mB1 (ligand, recombinant with C-terminal hexahistidine tag in SPR) HFGRLHCTTAVIRNINDQVLFVDKRQPVFEDMTDIDQSASEPQTRLIIYGYADSDARAKAVTLSVKDSKMSTLSCKNKIISFEEMDPPENIDDIQSDLIFFQKSVPGHNKMEFESSLYEGHFLACQKEDDAFKLILKKKDENGDKSVMFTVTNLHQS
**A:** 21000

**Q:** Please report KD ratio: IL-18BP/IL-18Rα for the following binder: mA7 (ligand, recombinant with C-terminal hexahistidine tag in SPR) YFGRLHCTTAVIRNINDQVLFVDKRQPVFEDMTDIDQSASEPQTRLIIYAYGDNRVRGKAVTLSVKDSKMSTLSCKNKIISFEEMDPPENIDDIQSDLIFFQKRVPGHNKMEFESSLYEGHFLACQKEDDAFKLILKKKDENGDKSVMFTLTNLHQS
**A:** 63200
